Experiment: recombinant UMI read abundance after kanamycin selection (control-corrected) (log10(CPM+1)); higher = more efficient recombination; extreme values may be limits of the assay; sequences stand for … in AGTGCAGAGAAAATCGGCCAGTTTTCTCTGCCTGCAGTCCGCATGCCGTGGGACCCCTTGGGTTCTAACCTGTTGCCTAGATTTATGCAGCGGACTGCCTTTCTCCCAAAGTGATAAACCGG…AGGTTGGTTTCACT; site = the 11-nt donor
recombinant UMI read abundance (log10) below 0.8 gives 0.0; recombinant UMI read abundance (log10) at or above it gives 1.0.

* CATCGCCCATGGACCGGTTTTCCCGGTAATCCGTATTTGAT (site CATCGCCCTAT) | 0.0
* ACAGCATCATGGACCGGTTTTCCCGGTAATCCGTATTTGCG (site ACAGCATCTCG) | 1.0
* TAGGTAGCATGGACCGGTTTTCCCGGTAATCCGTATTTGAA (site TAGCTAGCTTT) | 0.0
* TACTTCGCATGGACCGGTTTTCCCGGTAATCCGTATTTGAT (site TACTTCGCTAT) | 0.0
* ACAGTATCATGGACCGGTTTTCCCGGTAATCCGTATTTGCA (site AGAGTATCTGG) | 0.0
* GACCGTCCATGGACCGGTTTTCCCGGTAATCCGTATTTGAT (site GACCGTCCTAT) | 0.0
* ACGAAGGCATGGACCGGTTTTCCCGGTAATCCGTATTTGAC (site ACGAAGGCTGT) | 1.0
* CGCTTAGCATGGACCGGTTTTCCCGGTAATCCGTATTTGTA (site CGCTTAGCTTA) | 1.0
* ATTTAGGCATGGACCGGTTTTCCCGGTAATCCGTATTTGGC (site ATATAGGCTGC) | 1.0
* ACTACTGCATGGACCGGTTTTCCCGGTAATCCGTATTTGGT (site ACTAATGCTAC) | 0.0
* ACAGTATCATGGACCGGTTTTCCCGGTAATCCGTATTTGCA (site ACAGTCTCTTC) | 0.0
* TGGAACCCATGGACCGGTTTTCCCGGTAATCCGTATTTGTT (site TGGAACCCTAA) | 1.0
* TATCTAGCATGGACCGGTTTTCCCGGTAATCCGTATTTGAA (site TAGCTAGCTTT) | 0.0
* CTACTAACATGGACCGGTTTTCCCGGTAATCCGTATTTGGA (site TTACTAACTTC) | 0.0
* ATAAGGACATGGACCGGTTTTCCCGGTAATCCGTATTTGAC (site ATAAGGTCTGT) | 1.0
* AGGTAATCATGGACCGGTTTTCCCGGTAATCCGTATTTGAG (site AGGTAATCTCT) | 1.0
* ATGTGGGCATGGACCGGTTTTCCCGGTAATCCGTATTTGGC (site ATGTAGGCTGC) | 1.0
* CGTTTGGCATGGACCGGTTTTCCCGGTAATCCGTATTTGTT (site CGTTTGGCTAT) | 0.0
* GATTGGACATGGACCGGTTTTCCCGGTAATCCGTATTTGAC (site GACTGGACTGT) | 0.0
* TAGCGAGCATGGACCGGTTTTCCCGGTAATCCGTATTTGAA (site TAGCGAGCTTT) | 1.0
* AGGACATCATGGACCGGTTTTCCCGGTAATCCGTATTTGCT (site TGGACATCTAG) | 1.0
* GTCGTCGCATGGACCGGTTTTCCCGGTAATCCGTATTTGCG (site GTTGTCGCTCG) | 0.0
* GGGGCAACATGGACCGGTTTTCCCGGTAATCCGTATTTGTC (site GGGGCAACTGA) | 1.0
* GTAGCTGCATGGACCGGTTTTCCCGGTAATCCGTATTTGTG (site ATAGCTGCTCA) | 0.0
* GCGACTGCATGGACCGGTTTTCCCGGTAATCCGTATTTGCC (site GCAACTGCTGG) | 1.0

###

recombinant barcode read abundance (log10) reference
Assay: recombinant barcode read abundance after kanamycin selection (control-corrected) (log10(CPM+1)); higher = more efficient recombination; sequences stand for … in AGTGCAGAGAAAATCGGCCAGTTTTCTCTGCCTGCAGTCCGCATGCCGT…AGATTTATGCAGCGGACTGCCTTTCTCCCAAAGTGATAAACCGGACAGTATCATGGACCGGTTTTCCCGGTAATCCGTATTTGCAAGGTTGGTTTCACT; site = the 11-nt target
ASSAY READOUT: recombinant barcode read abundance (log10)

• AATGCTCCTTGGGTTCTAACCTGTTGCAT (site AATGCTCCTAC) = 0.532
• CCAGGTGCTTGGGTTCTAACCTGTTGCGG (site CCAGGTGCTCC) = 1.62
• AGTCATTCTTGGGTTCTAACCTGTTGCAT (site AGTCAGTCTAC) = 0.166
• ATGGTCACTTGGGTTCTAACCTGTTGCCT (site AGGGTCACTAG) = 0.0805
• ACTGTATCTTGGGTTCTAACCTGTTGCCT (site CCTGTATCTAG) = 0.134
• ACGACTGCTTGGGTTCTAACCTGTTGCCT (site ACGACTACTAG) = 0.166
• TGTGGGTCTTGGGTTCTAACCTGTTGCCT (site TGTGGGTCTAG) = 0.393
• ACATAGACTTGGGTTCTAACCTGTTGCGC (site ACATAGACTGC) = 1.35
• TACATCCCTTGGGTTCTAACCTGTTGCCG (site TACATCCCTTG) = 0.0738
• CGCGCCACTTGGGTTCTAACCTGTTGCCT (site CGCGCCACTAG) = 0.383
• CGAACTACTTGGGTTCTAACCTGTTGCCT (site CGAACTACTAC) = 0.311
• TGGAGTCCTTGGGTTCTAACCTGTTGCCT (site TGGGGTCCTAG) = 0.548
• CAAACCTCTTGGGTTCTAACCTGTTGCAC (site TCTTAGACTTC) = 0.0456
• ACAAGGCCTTGGGTTCTAACCTGTTGCCT (site ACAAGGCCTAG) = 0.16
• TAGTCTGCTTGGGTTCTAACCTGTTGCCT (site TAGTCTGCTAG) = 0.0515
• TAGTTATCTTGGGTTCTAACCTGTTGCTA (site TAGTTATCTTA) = 0.0606
• AGGAGCCCTTGGGTTCTAACCTGTTGCTC (site AGGAGCCCTGA) = 0.377

###

Experiment: recombinant barcode read abundance after kanamycin selection (control-corrected) (log10(CPM+1)); higher = more efficient recombination; sequences stand for … in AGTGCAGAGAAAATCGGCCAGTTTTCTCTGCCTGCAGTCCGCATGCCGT…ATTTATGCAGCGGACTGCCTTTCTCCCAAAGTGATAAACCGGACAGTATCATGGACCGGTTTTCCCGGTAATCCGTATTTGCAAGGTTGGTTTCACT; site = the 11-nt target
ASSAY READOUT: recombinant barcode read abundance (log10)

* CATATTAGATGGGTTCTAACCTGTTGCCTTC [CATATTACTAG_LTGcore_GA_RTGcore_GA] (site CATATTACTAG) (LTG core: GA, RTG core: GA) | 0.0675
* CGCGCCCCTTGGGTTCTAACCTGTTGCGGAC [CGCGCCCCTCC_LTGcore_CT_RTGcore_GT] (site CGCGCCCCTCC) (LTG core: CT, RTG core: GT) | 0.0615
* GGGCGTGAGTGGGTTCTAACCTGTTGCCTCT [GGGCGTGCTAG_LTGcore_AG_RTGcore_AG] (site GGGCGTGCTAG) (LTG core: AG, RTG core: AG) | 0.523
* AAACACACTTGGGTTCTAACCTGTTGCCTCA [AAACACACTAG_LTGcore_CT_RTGcore_TG] (site AAACACACTAG) (LTG core: CT, RTG core: TG) | 0.985
* TGTATTCTATGGGTTCTAACCTGTTGCCTAG [TGTATTCCTAG_LTGcore_TA_RTGcore_CT] (site TGTATTCCTAG) (LTG core: TA, RTG core: CT) | 0.0251
* GAGTCCTATTGGGTTCTAACCTGTTGCCTAT [GAGTCCTCTAG_LTGcore_AT_RTGcore_AT] (site GAGTCCTCTAG) (LTG core: AT, RTG core: AT) | 0.0431
* GGGCGTGATTGGGTTCTAACCTGTTGCCTAG [GGGCGTGCTAG_LTGcore_AT_RTGcore_CT] (site GGGCGTGCTAG) (LTG core: AT, RTG core: CT) | 0.308
* GAGTCCTCTTGGGTTCTAACCTGTTGCCTTT [GAGTCCTCTAG_LTGcore_CT_RTGcore_AA] (site GAGTCCTCTAG) (LTG core: CT, RTG core: AA) | 0.398
* TCTACCCCTTGGGTTCTAACCTGTTGCTGTT [TCTACCCCTCA_LTGcore_CT_RTGcore_AA] (site TCTACCCCTCA) (LTG core: CT, RTG core: AA) | 0.07
* GGACACCGTTGGGTTCTAACCTGTTGCCTAG [GGACACCCTAG_LTGcore_GT_RTGcore_CT] (site GGACACCCTAG) (LTG core: GT, RTG core: CT) | 0.32
* GTCGCCCATTGGGTTCTAACCTGTTGCTAAT [GTCGCCCCTTA_LTGcore_AT_RTGcore_AT] (site GTCGCCCCTTA) (LTG core: AT, RTG core: AT) | 0.182
* TAAGAATGTTGGGTTCTAACCTGTTGCCTAG [TAAGAATCTAG_LTGcore_GT_RTGcore_CT] (site TAAGAATCTAG) (LTG core: GT, RTG core: CT) | 0.127
* GGCTCCCTGTGGGTTCTAACCTGTTGCGGAG [GGCTCCCCTCC_LTGcore_TG_RTGcore_CT] (site GGCTCCCCTCC) (LTG core: TG, RTG core: CT) | 0.046
* GCGCGACCGTGGGTTCTAACCTGTTGCTTAG [GCGCGACCTAA_LTGcore_CG_RTGcore_CT] (site GCGCGACCTAA) (LTG core: CG, RTG core: CT) | 0.217
* AGTCTTAATTGGGTTCTAACCTGTTGCCAAG [AGTCTTACTTG_LTGcore_AT_RTGcore_CT] (site AGTCTTACTTG) (LTG core: AT, RTG core: CT) | 0.295
* CGCGCCCGTTGGGTTCTAACCTGTTGCGGAG [CGCGCCCCTCC_LTGcore_GT_RTGcore_CT] (site CGCGCCCCTCC) (LTG core: GT, RTG core: CT) | 0.062
